- EXPERIMENTAL TARGET: Estrogen receptor beta (Homo sapiens, UniProt Q92731)
- Sequence (Q92731 whole entry): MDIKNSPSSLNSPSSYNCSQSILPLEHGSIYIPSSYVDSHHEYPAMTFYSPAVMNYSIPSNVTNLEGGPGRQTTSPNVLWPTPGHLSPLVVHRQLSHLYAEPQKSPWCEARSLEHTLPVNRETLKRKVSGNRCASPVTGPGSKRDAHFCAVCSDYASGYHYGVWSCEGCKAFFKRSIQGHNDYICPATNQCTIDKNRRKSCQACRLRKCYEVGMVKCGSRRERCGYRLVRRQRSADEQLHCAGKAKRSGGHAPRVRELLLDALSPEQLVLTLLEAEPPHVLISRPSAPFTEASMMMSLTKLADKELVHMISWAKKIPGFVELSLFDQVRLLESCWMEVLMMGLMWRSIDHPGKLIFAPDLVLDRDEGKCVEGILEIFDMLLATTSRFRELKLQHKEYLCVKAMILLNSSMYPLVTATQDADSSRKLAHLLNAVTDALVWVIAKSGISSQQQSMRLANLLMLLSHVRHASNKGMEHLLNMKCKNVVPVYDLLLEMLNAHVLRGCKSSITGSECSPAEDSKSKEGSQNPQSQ
- ASSAY: Displacement of estradiol from human ERbetaa expressed in yeast cells
READOUT KIND: pIC50
Give bare numbers, as −log10 of the molar value.

Which pIC50 is reported for this compound? O=C(/C=C/c1ccc(O)cc1)c1ccc(O)cc1O
6.57

* * *

- EXPERIMENTAL TARGET: Estrogen receptor (Homo sapiens, UniProt P03372)
- Sequence (P03372 whole entry): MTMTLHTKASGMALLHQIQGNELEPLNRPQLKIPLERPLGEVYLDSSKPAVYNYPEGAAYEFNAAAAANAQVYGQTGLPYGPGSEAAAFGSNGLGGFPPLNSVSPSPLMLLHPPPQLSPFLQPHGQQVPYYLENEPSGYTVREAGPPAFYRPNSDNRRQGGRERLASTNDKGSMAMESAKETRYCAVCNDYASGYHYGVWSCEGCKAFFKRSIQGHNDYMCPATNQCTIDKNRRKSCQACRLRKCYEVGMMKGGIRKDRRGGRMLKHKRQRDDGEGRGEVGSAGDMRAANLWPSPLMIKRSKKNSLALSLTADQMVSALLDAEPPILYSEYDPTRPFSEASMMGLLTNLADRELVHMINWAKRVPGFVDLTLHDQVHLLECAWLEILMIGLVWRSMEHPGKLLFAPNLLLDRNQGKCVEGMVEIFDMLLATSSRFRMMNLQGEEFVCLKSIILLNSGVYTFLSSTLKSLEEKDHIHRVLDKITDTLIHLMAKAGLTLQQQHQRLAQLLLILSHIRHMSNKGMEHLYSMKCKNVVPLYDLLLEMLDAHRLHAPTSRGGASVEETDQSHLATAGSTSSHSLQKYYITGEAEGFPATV
- ASSAY: Displacement of estradiol from human ERalpha expressed in yeast cells
READOUT KIND: IC50 (nM)
Numbers only, in nM.

Which IC50 is reported for this compound? O=C(/C=C/c1ccc(O)cc1)c1ccc(O)cc1O [ISOLIQUIRITIGENIN]
1870
